Test system: DMS 114 small cell lung
TEST METHOD NOTES: NCI tumour cell line growth inhibition, 48 h
Entries and their TGI

[[record]]
compound = "CC(=O)OC1CC[C@@]2(C)C(CC(OC3OC(CO)C(O)C(O)C3O)[C@]3(C)C2CCC24CC23CC[C@H]4C(C)CC(O)[C@@H](O)C(C)(C)O)C1(C)C (stereo partly drawn)"
result = "20.6 µM"


# compound O=C1/C=C(/c2ccc(O)cc2)[C@H](O)Cc2ccc(OC3OC(CO)C(O)C(O)C3O)cc2O1 (stereo partly drawn) (tested in a mixture with another compound) ; its TGI = > 100 µM

# compound O=C(O)C(=O)/C=C\c1ccc(Cl)cc1 ; its TGI = > 100 µM

# compound CC1=NN(C(=O)CC(=O)Nc2ccccc2)C(=O)C1N=Nc1ccc(S(N)(=O)=O)cc1 (stereo not drawn) ; its TGI = > 100 µM

# compound COc1cc2c3c(c1OC)C1(C=CC(=O)C=C1)CC3N(C(=O)OC(C)(C)C(Cl)(Cl)Cl)CC2 (stereo not drawn) ; its TGI = 22 µM

====

Test system: UACC-257 melanoma
TEST METHOD NOTES: NCI tumour cell line growth inhibition, 48 h
Entries and their GI50

In the examples that follow, each entry is paired with its recorded GI50.
[[record]]
compound = "CN1CCN(c2nc(NCCNc3ccnc4cc(Cl)ccc34)c3ccccc3n2)CC1"
tgt = "UACC-257 melanoma"
endpoint_name = "GI50"
result = "1.71 µM"

[[record]]
compound = "N#CC1=C(N)Oc2c(sc3c(F)cccc23)C1c1ccc(Cl)cc1 (centres undefined)"
tgt = "UACC-257 melanoma"
endpoint_name = "GI50"
result = "11.7 µM"

[[record]]
compound = "Cc1cc(C)c2nc(Nc3nc(C)c(C)c(=O)[nH]3)nc(C)c2c1"
tgt = "UACC-257 melanoma"
endpoint_name = "GI50"
result = "2.82 µM"

[[record]]
compound = "O=C(/C=C/c1ccco1)c1ccc(Nc2ccnc3cc(Cl)ccc23)cc1"
tgt = "UACC-257 melanoma"
endpoint_name = "GI50"
result = "76 µM"

[[record]]
compound = "COc1ccc(C2CC(c3cccc(Nc4ccnc5cc(Cl)ccc45)c3)=NN2c2ccccc2)cc1 (centres undefined)"
tgt = "UACC-257 melanoma"
endpoint_name = "GI50"
result = "1.36 µM"


# compound COC(=O)c1ccc2c(c1)[n+](=O)c(C(C)=O)c(C(F)(F)F)n2[O-] ; its GI50 = 1.82 µM

# compound CCCCCCCC(=O)SCC/C=C/[C@@H]1CC(=O)NCc2cccc(n2)CN(Cc2ccc(Cl)cc2)CC(=O)N[C@@H](C(C)C)C(=O)O1 ; its GI50 = 8.99 µM

# compound C=C1c2c(C)nn(-c3ccccc3)c2N(C)C23C[C@@H]1C1(C)c4c(C)nn(-c5ccccc5)c4N(C)C(C)(C[C@H]12)C3 (some centres undefined) ; its GI50 = 2.87 µM

# compound CC([C@H]1CCC2C3CCC4C(=O)C(NC=O)=CC[C@]4(C)C3CC[C@@]21C)N(C)C (some centres undefined) ; its GI50 = 4.24 µM

====

Test system: SN12C renal
TEST METHOD NOTES: NCI tumour cell line growth inhibition, 48 h; in the data active means GI50 below about 0.43 µM; inactive means the rest
Parameter call: string, one of T for active, F for inactive

Below are worked cases with known answers.
[[record]]
compound = "COc1cc(Oc2cnc3cc(N)cc(N)c3n2)cc(OC)c1OC"
tgt = "SN12C renal"
label = "F"

[[record]]
compound = "COc1ccc(C2CC(c3cccc(Nc4ccnc5cc(Cl)ccc45)c3)=NN2c2ccccc2)cc1 (stereo not given)"
tgt = "SN12C renal"
label = "F"

[[record]]
compound = "CC([C@H]1CCC2C3CCC4C(=O)C(NC=O)=CC[C@]4(C)C3CC[C@@]21C)N(C)C (stereo not given in full)"
tgt = "SN12C renal"
label = "F"

[[record]]
compound = "Cc1c(Br)cccc1NC(=O)c1sc2nc3c(cc2c1N)CN(Cc1ccccc1)CC3"
tgt = "SN12C renal"
label = "T"

[[record]]
compound = "COC(=O)c1ccc2c(c1)CCN2C(=O)c1cc2c(cc1Br)OCO2"
tgt = "SN12C renal"
label = "F"

[[record]]
compound = "Oc1ccc(Br)cc1CN1CCN(Cc2ccc(Cl)cc2)CC1"
tgt = "SN12C renal"
label = "F"


// outcome(item) with item = CN1CCN(c2nc(NCCNc3ccnc4cc(Cl)ccc34)c3ccccc3n2)CC1
F

// outcome(item) with item = N=C(N)c1ccc(-c2ccc(-c3ccco3)o2)cc1
F

// outcome(item) with item = CCSc1sc(-c2ccc(C)cc2)nc1[P+](c1ccccc1)(c1ccccc1)c1ccccc1
T

// outcome(item) with item = O=c1cc(N2CCOCC2)oc2c(-c3ccccc3)cccc12
F

====

Tested on: RPMI-8226 leukemia
TEST METHOD NOTES: NCI tumour cell line growth inhibition, 48 h
Entries and their log10 TGI
Response schema: value (number) is log10 of TGI in units of µM.

In the examples that follow, each entry is paired with its recorded log10 TGI.
[[record]]
molecule = "COc1c2c(cc3oc(=O)ccc13)OC(C)(C)C=C2"
quantitative_readout = 1.94

[[record]]
molecule = "Cc1cc(C)c2c(=O)n(CC(O)CN3CCN(c4ncccn4)CC3)sc2n1 (stereo not given)"
quantitative_readout = 1.64

[[record]]
molecule = "COc1ccc(-c2ccc(/C=N/n3cnn(CN4CCN(C)CC4)c3=S)o2)c([N+](=O)[O-])c1"
quantitative_readout = 1.73

[[record]]
molecule = "CN1CCN(c2nc(C3=C(c4c[nH]c5ccccc45)C(=O)NC3=O)c3ccccc3n2)CC1"
quantitative_readout = 1.58

[[record]]
molecule = "CCSc1sc(-c2ccc(C)cc2)nc1[P+](c1ccccc1)(c1ccccc1)c1ccccc1"
quantitative_readout = -0.32


# molecule CCCCc1ccc(Nc2nc(N)c3[nH]cnc3n2)cc1 ; its log10 TGI = 1.89

# molecule C=CC[n+]1c(/C=C2\Sc3ccccc3N2C)sc(-c2ccccc2)c1-c1ccccc1 ; its log10 TGI = -0.01

====

System: CAKI-1 renal
TEST METHOD NOTES: NCI tumour cell line growth inhibition, 48 h
ENDPOINT NAME: TGI

[[record]]
compound = "NC(=O)c1ccc(N)nc1"
result = "> 400 µM"


Observed TGI on CAKI-1 renal, entry O=C(OCc1ccccc1[N+](=O)[O-])N1c2ccccc2[C@@]23O[C@]24CCC[C@H]3C#C/C=C\C#C[C@H]14 , equals > 100 µM

Observed TGI on CAKI-1 renal, entry O=C(c1ccc(Cl)cc1)N(C(=S)N1CCN(c2ccccc2)CC1)C1CCCCC1 , equals > 100 µM

Observed TGI on CAKI-1 renal, entry Clc1cc(Cl)c2n[se]nc2c1 , equals > 100 µM

Observed TGI on CAKI-1 renal, entry O=C(O)CSc1ccn(Cc2ccccc2)c1 , equals > 100 µM

Observed TGI on CAKI-1 renal, entry N=C(N)c1ccc(-c2ccc(-c3ccco3)o2)cc1 , equals 16.6 µM

Observed TGI on CAKI-1 renal, entry Cc1cc([C@H](C#N)c2nc3ccccc3s2)nc(Cl)n1 , equals 31 µM

Observed TGI on CAKI-1 renal, entry CC(=O)OC1CC[C@@]2(C)C(CC(OC3OC(CO)C(O)C(O)C3O)[C@]3(C)C2CCC24CC23CC[C@H]4C(C)CC(O)[C@@H](O)C(C)(C)O)C1(C)C (stereo not given in full) , equals > 50 µM

Observed TGI on CAKI-1 renal, entry Cc1cc(C)c2c(=O)n(CC(O)CN3CCN(c4ncccn4)CC3)sc2n1 (stereo not given) , equals 39.5 µM

Observed TGI on CAKI-1 renal, entry COc1ccc(CNCCN2C(=O)c3ccc4c5c(ccc(c35)C2=O)C(=O)N(CCNCc2ccc(OC)cc2)C4=O)cc1 , equals 3.38 µM

====

Tested on: KM12 colon
TEST METHOD NOTES: NCI tumour cell line growth inhibition, 48 h
Entries and their GI50

In the examples that follow, each entry is paired with its recorded GI50.
[[record]]
molecule = "CC(C)=CCNc1ncnc2c1ncn2C1OC(COP(=O)(O)O)C(O)C1O (centres undefined)"
endpoint_name = "GI50"
result = "20.1 µM"

[[record]]
molecule = "O=C(/C=C/c1ccco1)c1ccc(Nc2ccnc3cc(Cl)ccc23)cc1"
endpoint_name = "GI50"
result = "3.17 µM"

[[record]]
molecule = "CCCCCCCC(=O)SCC/C=C/[C@@H]1CC(=O)NCc2cccc(n2)CN(Cc2ccc(Cl)cc2)CC(=O)N[C@@H](C(C)C)C(=O)O1"
endpoint_name = "GI50"
result = "9.4 µM"


Switching to the query record.
# molecule CCCCC#Cc1c(I)n(C2OC(CO[Si](C)(C)C(C)(C)C)C3OC(C)(C)OC32)c(=O)[nH]c1=O (centres undefined) ; its GI50 = 11.7 µM
